- assay text: Hypothermia in mice after subcutaneous injection
- Assay type: in vivo
- experimental context: Mus musculus, sc, 20 min, read-out: Hypothermia ED50, mice, subcutaneous; dose required to depress temperature (2° C.) in two of four mice; Spearman-Karber
Would you kindly list ED50 for each of these compounds?
Answer format: numeric, mg/kg implied, no suffix.

IN: Give the value of ED50 reported for the following: COC(=O)C1Cc2c(ccc3c2OC(CN2CCC4(CC2)C(=O)NCN4c2ccccc2)CO3)N1 (centres unmarked)
OUT: 17.3

IN: Give the value of ED50 reported for the following: COC(=O)c1cc2c3c(ccc2[nH]1)OCC(CN1CCC2(CC1)C(=O)NCN2c1ccccc1)O3 (centres unmarked)
OUT: 30

IN: Give the value of ED50 reported for the following: N#Cc1cc2c3c(ccc2[nH]1)OCC(CN1CCC2(CC1)C(=O)NCN2c1ccccc1)O3 (centres unmarked)
OUT: 0.01

IN: Give the value of ED50 reported for the following: O=C(OCc1ccccc1)c1cc2c3c(ccc2[nH]1)OCC(CN1CCC2(CC1)C(=O)NCN2c1ccccc1)O3 (centres unmarked)
OUT: 17.3

IN: Give the value of ED50 reported for the following: O=C(O)c1cc2c3c(ccc2[nH]1)OCC(CN1CCC2(CC1)C(=O)NCN2c1ccccc1)O3 (centres unmarked)
OUT: 17.3

----------
Would you kindly list IC50 for each of these compounds?
- measurement target: 5-hydroxytryptamine (HT1A) receptor (Bos taurus)
- Construct: from tissue; host or cells: bovine brain homogenate
- assay text: Inhibition of 3H-8-OH-DPAT binding in a bovine brain homogenate (5HT1A binding)
- experimental context: 5HT1A Binding IC50, 3H-8-OH-DPAT
Answer format: numeric, µM implied, no suffix.

IN: Fill in IC50 for C=CCN1CN(c2ccccc2)C2(CCN(CC3COc4ccc5[nH]c(C(=O)OC)cc5c4O3)CC2)C1=O (stereo not shown) [XIp] tested with 5-hydroxytryptamine (HT1A) receptor (Bos taurus).
OUT: 0.011

IN: Fill in IC50 for CCCCOC(=O)c1cc2c3c(ccc2[nH]1)OCC(CN1CCC2(CC1)C(=O)NCN2c1ccccc1)O3 (stereo not shown) [XIe] tested with 5-hydroxytryptamine (HT1A) receptor (Bos taurus).
OUT: 0.0135

IN: Fill in IC50 for C=CCN1CN(c2ccccc2)C2(CCN(CC3COc4ccc5c(cc(C(=O)OC)n5CC=C)c4O3)CC2)C1=O (stereo not shown) [XIo] tested with 5-hydroxytryptamine (HT1A) receptor (Bos taurus).
OUT: 0.28

IN: Fill in IC50 for C=CCn1c(C(=O)OC)cc2c3c(ccc21)OCC(CN1CCC2(CC1)C(=O)NCN2c1ccccc1)O3 (stereo not shown) [XIn] tested with 5-hydroxytryptamine (HT1A) receptor (Bos taurus).
OUT: 0.268

----------
- measurement target: 5-hydroxytryptamine (HT1A) receptor (Bos taurus, UniProt F6Q2H9)
- Construct: from tissue; host or cells: bovine brain homogenate
- Sequence (F6Q2H9 1-422): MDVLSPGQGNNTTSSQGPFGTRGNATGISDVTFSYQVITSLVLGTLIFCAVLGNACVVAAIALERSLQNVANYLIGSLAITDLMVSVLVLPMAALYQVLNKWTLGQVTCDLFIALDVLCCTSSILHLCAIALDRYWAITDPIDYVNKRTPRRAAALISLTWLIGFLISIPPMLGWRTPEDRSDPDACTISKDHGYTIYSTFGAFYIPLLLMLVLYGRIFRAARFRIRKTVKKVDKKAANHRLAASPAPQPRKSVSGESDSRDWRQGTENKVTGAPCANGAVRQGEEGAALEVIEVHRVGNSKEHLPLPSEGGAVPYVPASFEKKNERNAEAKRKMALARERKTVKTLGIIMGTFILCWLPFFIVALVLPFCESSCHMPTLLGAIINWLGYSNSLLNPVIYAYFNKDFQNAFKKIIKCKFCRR
- assay text: Inhibition of 3H-8-OH-DPAT binding in a bovine brain homogenate (5HT1A binding)
- experimental context: 3H-8-OH-DPAT, read-out: 5HT1A Binding IC50
Counter-ions that a name gives are not always drawn.
measured attribute: IC50 (nM)
Answer format: numeric, nM implied, no suffix.

IN: Give the value of IC50 reported for the following: CCOC(=O)C1CCN(CC2COc3ccc4[nH]c(C(=O)OC)cc4c3O2)CC1 (stereo not drawn) [XIh, monohydrochloride]
OUT: 9.6

IN: Give the value of IC50 reported for the following: COC(=O)c1cc2c3c(ccc2[nH]1)OCC(CNCCCc1ccccc1)O3 (stereo not drawn) [XIj, monohydrochloride]
OUT: 4

IN: Give the value of IC50 reported for the following: Cl.O=C(NCCCc1ccccc1)c1cc2c3c(ccc2[nH]1)OCC(CNCCCc1ccccc1)O3 (stereo not drawn) [XIk, monohydrochloride]
OUT: 26

----------
- measurement target: dopamine D2 receptors (Rattus norvegicus, UniProt P61169)
- Sequence (P61169 whole entry): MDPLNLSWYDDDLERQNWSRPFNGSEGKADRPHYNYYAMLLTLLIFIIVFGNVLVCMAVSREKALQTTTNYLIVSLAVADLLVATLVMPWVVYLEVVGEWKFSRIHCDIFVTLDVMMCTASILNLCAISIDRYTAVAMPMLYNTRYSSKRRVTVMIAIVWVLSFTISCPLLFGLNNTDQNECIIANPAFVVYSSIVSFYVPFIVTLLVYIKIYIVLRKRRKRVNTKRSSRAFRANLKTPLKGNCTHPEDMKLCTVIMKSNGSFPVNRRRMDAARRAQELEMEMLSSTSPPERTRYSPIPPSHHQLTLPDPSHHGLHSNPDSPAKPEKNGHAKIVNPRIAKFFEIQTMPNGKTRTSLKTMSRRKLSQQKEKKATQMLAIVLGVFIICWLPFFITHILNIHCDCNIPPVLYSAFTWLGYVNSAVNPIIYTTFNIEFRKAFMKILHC
- assay text: biochemical
- Assay type: binding
measured attribute: pIC50
In plain terms, pIC50 is the concentration in mol/L turned into minus its base-10 logarithm.

IN: Fill in pIC50 for O=C(O)c1cc2c3c(ccc2[nH]1)OCC(CN1CCC2(CC1)C(=O)NCN2c1ccccc1)O3 (stereo not shown) tested with dopamine D2 receptors (Rattus norvegicus, UniProt P61169).
OUT: 7.28

IN: Fill in pIC50 for N#Cc1cc2c3c(ccc2[nH]1)OCC(CN1CCC2(CC1)C(=O)NCN2c1ccccc1)O3 (stereo not shown) tested with dopamine D2 receptors (Rattus norvegicus, UniProt P61169).
OUT: 8.82

IN: Fill in pIC50 for O=C1NCN(c2ccccc2)C12CCN(CC1COc3ccc4[nH]ccc4c3O1)CC2 (stereo not shown) tested with dopamine D2 receptors (Rattus norvegicus, UniProt P61169).
OUT: 9.89

IN: Fill in pIC50 for C=CCN1CN(c2ccccc2)C2(CCN(CC3COc4ccc5c(cc(C(=O)OC)n5CC=C)c4O3)CC2)C1=O (stereo not shown) tested with dopamine D2 receptors (Rattus norvegicus, UniProt P61169).
OUT: 7.01

----------
Would you kindly list IC50 for each of these compounds?
- measurement target: dopamine D2 receptors (Rattus norvegicus)
- assay text: biochemical
- Type: binding
- experimental context: 3H-raclopride, rat striata homogenate; read-out: Dopamine D2-Receptor Binding IC50
- Text: For Dopamine (D2): Inhibition of 3H-raclopride binding in rat striata homogenate. […] This test measures the ability to bind to dopamine D2 receptors.
Counter-ions that a name gives are not always drawn.
Answer format: numeric, µM implied, no suffix.

IN: Give the value of IC50 reported for the following: CCOC(=O)C1CCN(CC2COc3ccc4[nH]c(C(=O)OC)cc4c3O2)CC1 (stereo not shown) [XIh, monohydrochloride]
OUT: 0.147

IN: Give the value of IC50 reported for the following: O=C(OCc1ccccc1)c1cc2c3c(ccc2[nH]1)OCC(CN1CCC2(CC1)C(=O)NCN2c1ccccc1)O3 (stereo not shown)
OUT: 0.19

IN: Give the value of IC50 reported for the following: COC(=O)c1cc2c3c(ccc2[nH]1)OCC(CNCCCc1ccccc1)O3 (stereo not shown) [XIj, monohydrochloride]
OUT: 0.0546

IN: Give the value of IC50 reported for the following: Cl.O=C(NCCCc1ccccc1)c1cc2c3c(ccc2[nH]1)OCC(CNCCCc1ccccc1)O3 (stereo not shown) [XIk, monohydrochloride]
OUT: 0.35

----------
Would you kindly list IC50 for each of these molecules?
- measurement target: 5-hydroxytryptamine (HT1A) receptor (Bos taurus, UniProt F6Q2H9)
- Construct: from tissue; host or cells: bovine brain homogenate
- assay text: Inhibition of 3H-8-OH-DPAT binding in a bovine brain homogenate (5HT1A binding)
- experimental context: 5HT1A Binding IC50, 3H-8-OH-DPAT
Structures can show the parent of a compound that is named as a salt.
Answer format: numeric, nM implied, no suffix.

IN: Give the value of IC50 reported for the following: O=C(O)c1cc2c3c(ccc2[nH]1)OCC(CN1CCC2(CC1)C(=O)NCN2c1ccccc1)O3 (stereo not shown) [b']
OUT: 24.7

IN: Give the value of IC50 reported for the following: O=C(O)c1cc2c3c(ccc2[nH]1)OCC(CN1CCC2(CC1)C(=O)NCN2c1ccccc1)O3 (stereo not shown) [XIb]
OUT: 36.3

IN: Give the value of IC50 reported for the following: N#Cc1cc2c3c(ccc2[nH]1)OCC(CN1CCC2(CC1)C(=O)NCN2c1ccccc1)O3 (stereo not shown)
OUT: 0.17

IN: Give the value of IC50 reported for the following: O=C1NCN(c2ccccc2)C12CCN(CC1COc3ccc4[nH]ccc4c3O1)CC2 (stereo not shown)
OUT: 1

IN: Give the value of IC50 reported for the following: NC(=O)c1cc2c3c(ccc2[nH]1)OCC(CN1CCC2(CC1)C(=O)NCN2c1ccccc1)O3 (stereo not shown)
OUT: 0.29

IN: Give the value of IC50 reported for the following: COC(=O)c1cc2c3c(ccc2[nH]1)OCC(CN1CCC2(CC1)C(=O)NCN2c1ccccc1)O3 (stereo not shown)
OUT: 0.47

IN: Give the value of IC50 reported for the following: O=C1NCN(c2ccccc2)C12CCN(CC1COc3ccc4[nH]c(CO)cc4c3O1)CC2 (stereo not shown)
OUT: 2.3

IN: Give the value of IC50 reported for the following: COC(=O)c1cc2c3c(ccc2[nH]1)OCC(CN1CCC(n2c(=O)[nH]c4ccccc42)CC1)O3 (stereo not shown) [XIg, monohydrochloride]
OUT: 3.7

IN: Give the value of IC50 reported for the following: COC(=O)c1cc2c3c(ccc2[nH]1)OCC(CN1CCC(Nc2ccccc2)(C(N)=O)CC1)O3 (stereo not shown)
OUT: 79.3

IN: Give the value of IC50 reported for the following: O=C(OCc1ccccc1)c1cc2c3c(ccc2[nH]1)OCC(CN1CCC2(CC1)C(=O)NCN2c1ccccc1)O3 (stereo not shown)
OUT: 8.4

Just for reference, patent US5302599A is where these values come from.
